This collection of values is drawn from patent US7001897B2.

- experimental protocol: Pharmacokinetics, plasma concentration by bioassay after subcutaneous injection
- Type: in vivo
- condition details: mouse, sc, mice (ddY, male), 20 mg/kg subcutaneous, read-out: AUCall (area under the concentration-time curve in plasma)
measured property: AUC (ng·h/mL)

C[C@@H](O)[C@H]1C(=O)N2C(C(=O)[O-])=C(SC3CN(c4nc(C(=O)N5CCOCC5)co4)C3)[C@H](C)[C@H]12.[Na+] :: 27900
C[C@@H](O)[C@H]1C(=O)N2C(C(=O)O)=C(SC3CN(c4nc(C(=O)N[C@H]5CCNC5)cs4)C3)[C@H](C)[C@H]12 :: 45300

[P] C[C@@H](O)[C@H]1C(=O)N2C(C(=O)O)=C(SC3CN(c4nc(C(=O)N5CCNCC5)cs4)C3)[C@H](C)[C@H]12
[Q] C[C@@H](O)[C@H]1C(=O)N2C(C(=O)O)=C(SC3CN(c4nc(C(=O)N[C@@H]5CCNC5)cs4)C3)[C@H](C)[C@H]12
Could you please tell me which of these two has the higher AUC: P or Q ? Identify your selection by its label. Q
(Q: 47400 ng·h/mL, P: 27900 ng·h/mL)
